From: the DeepSol protein solubility set

# ASSAY_PROCEDURE: soluble on expression in E. coli; label from the status in PepcDB or PDB records
QUANTITY_KIND: soluble on expression in E. coli

MGSDKIHHHHHHMALVKLQTQHFRNLLSAPVEFSPSFNLLYGANGSGKTSVLEAIGYLGLGRSFRVSRHQAVVAHGQSKLTVFGALDSGLLAQESSEKVEHRIGISRDVSLKETQLRVDGEAVRSLSFLAMHLPVSVIDPGVFDIVAGGPGKRRQFLDWLVFHVEPSFSSLWQQVQRVTSQRNQMLRNGRLDESLMRVWDSQYGALAESLSDIRETVFQRFKIAFESVLAELDAPWVEGLKMDFYPGWDRSTALTEVLVNHREQERRMGHTLYGPNRADIRLKFGGRPVAETFSRGQQKTLVILMKIAQGKVLSDLGKQVTFLLDDINAELDVRHRVMLARNLQELRCQVFITSIEHPEPDTLWHDGDTPEYRMFHVEHGQLTEE = not soluble
MVDIEPDRVYVFTPDGHAIDLPKNATPLDFAYRVHTEIGHNCRGAKINGRIVPLNYSLQTGEQVEIITSKHGTPSRDWLEHHHHHH = not soluble
MGSDKIHHHHHHMQEIFAVLPETIRQLLKKLPPSIQKDVEEIRIRVHRPLEVIVNHLPHYPEHQGCEYVVTTKDAQFLLNQLSAYSIYAFEEELKRGFITMAGGHRVGLAGKVTLEKGYVKTVRDISSFNIRVAKQKIGTAEPLISHVYQKGWLNTLLIGPPQSGKTTLLRDLARLVSVGWSRKGIPPLKVGIVDERSEIAAAVKGVPQHELGMRVDVLDGCPKAEGMMMMIRSMSPDVLIVDEIGRKEDCVAIQEALHAGVKVMTTAHGYELEEVSKRPAIRELLEIEAFDRCIELERRAKPGVVRRIRNAKAKDVGYVS = not soluble

###

# ASSAY_PROCEDURE: soluble on expression in E. coli; label from the status in PepcDB or PDB records
QUANTITY_KIND: soluble on expression in E. coli

Consider the reported soluble on expression in E. coli for these sequences:
MTDDKKMFDINEFLKRHLFVKNWVNYRQQSYTKYELMQLIESVEAALSVDDTLAKISPPVTIVGDIHGQYPDLVRVLCNQNSKEDAKKKAAYGFCNSRFVFLGDYVDRGHHSIECISLVFALKVVYPTNYILLRGNHETKSINYTYGFREELVNRLGPIDGFEIWERFNVAFSWMPLACLVGHKILCMHGGISPKLHSLKEINEIDRPVAEILPDSLAQDLLWADPADGQGAMTVRSTPEYVPNGVRGLSFIFNEAAVRDTCKRLNINLIVRAHQMIPEGFKFFADQKLLTIFSAPRYMNETDNHGATLRVETDGKLNIGRFRHKKLLHANSADEITRGDDIPNLERKKSGSMPVKHLKTSSSSSPSHSNGKSKGGEGLSLGKI = not soluble
MGSDKIHHHHHHGCKEKDMSMKMNEPHNIKGVISYKRSFGDLNDTHLSVAKKIGIRPLASRSEAEGLGGKLVQIKPCERYAMDSLTHSIPFLIPQASALLDTIGANFLDSLSCKGLNPNQIIVTSVLRTADDVKRLRRRNGNASANSAHAFGTTFDVSYRRFCKVEDPDGRPMQDVSPDTLKLVLAEVLRDLRKSDKCYIKYELKQGCFHITAR = not soluble
MAVPVRHLVAVTACVSGVAHTYMAAERLEKLCQQEKWSIKIETQGALGTENRLTEEDIRRADVVLLITDIELAGVERFTRSRYVQSGISAFLREPQRVMSAVRKLLSAPQHTHLILE = not soluble
MAFPRTLAILAAAAALVVACSHGGTPTGSSTTSGASPATPVAVPVPRSCAEPAGIPALLSPRDKLAQLLVVGVRDAADAQAVVTNYHVGGILIGSDTDLTIFDGALAEIVAGGGPLPLAVSVDEEGGRVSRLRSLIGGTGPSARELAQTRTVQQVRDLARDRGRQMRKLGITIDFAPVVDVTDAPDDTVIGDRSFGSDPATVTAYAGAYAQGLRDAGVLPVLKHFPGHGRGSGDSHNGGVTTPPLDDLVGDDLVPYRTLVTQAPVGVMVGHLQVPGLTGSEPASLSKAAVNLLRTGTGYGAPPFDGPVFSDDLSGMAAISDRFGVSEAVLRTLQAGADIALWVTTKEVPAVLDRLEQALRAGELPMSAVDRSVVRVATMKGPNPGCGR = not soluble
MDNEFTSPVYGVKAVPVERIRANSYNPNVTAPPEMRLLELSIWEDGYTMPCVCYYIEKEDVYELVDGYHRYKVMMTSPRIYKRENGLLPVTVIRKDLAERMASTIRHNRARGMHKIELMTRLVGELTRSGMSDSWIRRNLGMDKDELLRLKQISGLAELFADKEFRKAVE = not soluble
MLPFLFFSTLFSSIFTEAQKQYWVCNSSDASISYTYCDKMQYPISINVNPCIELKGSKGLLHIFYIPRRDLKQLYFNLYITVNTMNLPKRKEVICRGSDDDYSFCRALKGETVNTTISFSFKGIKFSKGKYKCVVEAISGSPEEMLFCLEFVILHQPNSNLEHHHHHH = not soluble

Next:
Ask: I would be grateful if you could share the reported soluble on expression in E. coli for MREEVKTVIKVKTVGDVPAIVSARKSITEGKVKDAIISGYRDVKNDYMRYFGIQQAPDEGERLFIVNTLKGLGIDLPEESIVDGKFIIDRISGMDLASTDPKVACFVKIAEFYLKYYEKAKYSDSVIEDDGEIIERLTGIYNYMDITKLYFKGDDAGVGT .
Result: not soluble
